These entries and their values trace back to patent US20140242083A1.

# system tested: T1, Cynomolgus MCSP D3 (cynomolgus, UniProt Q6UVK1 1582-2224 (human entry), limits assumed)
# T1 construct: Soluble analyte in SPR
# T1 chain: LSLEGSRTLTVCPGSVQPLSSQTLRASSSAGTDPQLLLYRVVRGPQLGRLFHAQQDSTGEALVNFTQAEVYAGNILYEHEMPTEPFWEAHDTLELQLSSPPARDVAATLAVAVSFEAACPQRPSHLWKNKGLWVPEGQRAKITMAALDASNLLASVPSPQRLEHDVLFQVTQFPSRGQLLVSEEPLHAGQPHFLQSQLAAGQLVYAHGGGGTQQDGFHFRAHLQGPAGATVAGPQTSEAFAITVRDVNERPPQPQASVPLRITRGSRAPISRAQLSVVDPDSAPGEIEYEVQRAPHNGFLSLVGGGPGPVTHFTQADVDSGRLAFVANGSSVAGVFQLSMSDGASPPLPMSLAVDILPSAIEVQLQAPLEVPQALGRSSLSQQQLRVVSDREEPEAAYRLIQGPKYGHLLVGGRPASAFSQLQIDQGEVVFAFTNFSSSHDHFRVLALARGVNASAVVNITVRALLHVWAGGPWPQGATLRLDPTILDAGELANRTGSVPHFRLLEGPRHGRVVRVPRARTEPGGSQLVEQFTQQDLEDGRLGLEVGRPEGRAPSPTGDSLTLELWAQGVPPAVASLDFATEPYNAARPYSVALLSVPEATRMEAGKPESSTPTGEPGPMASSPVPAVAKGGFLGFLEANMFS
# procedure details: SPR Biacore T200, 25 C, IgG captured on anti-human Fab, MCSP D3 as analyte, 1:1 Langmuir fit
readout label: Kd (nM)
API: value field is a number in nM; no unit string.

Task: Requested field: Kd. Item: M4-3 (A7) ML2 (C5) (antibody, human IgG1, V domains shown) VH: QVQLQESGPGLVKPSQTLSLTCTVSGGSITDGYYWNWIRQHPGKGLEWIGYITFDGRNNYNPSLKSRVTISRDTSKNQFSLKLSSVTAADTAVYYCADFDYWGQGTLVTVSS VL: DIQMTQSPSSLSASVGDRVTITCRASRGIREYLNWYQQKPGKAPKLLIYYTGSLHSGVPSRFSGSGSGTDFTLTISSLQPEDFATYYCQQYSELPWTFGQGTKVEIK
Result: 1.1

Task: Name the recorded Kd for M4-3 (A7) ML2 (antibody, human IgG1, V domains shown) VH: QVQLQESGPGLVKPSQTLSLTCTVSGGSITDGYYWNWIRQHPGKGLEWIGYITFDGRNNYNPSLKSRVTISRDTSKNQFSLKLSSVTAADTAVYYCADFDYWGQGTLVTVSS VL: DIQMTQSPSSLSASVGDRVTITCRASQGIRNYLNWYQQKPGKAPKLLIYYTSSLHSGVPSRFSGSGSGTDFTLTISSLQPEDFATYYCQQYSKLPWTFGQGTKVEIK .
Result: 16.3

Task: // lookup Kd for M4-3 (C1) ML2 (E10) (antibody, human IgG1, V domains shown) VH: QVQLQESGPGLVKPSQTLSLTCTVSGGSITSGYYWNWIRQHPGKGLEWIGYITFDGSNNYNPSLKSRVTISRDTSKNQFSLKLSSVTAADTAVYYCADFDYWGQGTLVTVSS VL: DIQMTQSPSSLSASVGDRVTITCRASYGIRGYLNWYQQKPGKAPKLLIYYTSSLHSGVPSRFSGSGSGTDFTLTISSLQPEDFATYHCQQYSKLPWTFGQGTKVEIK
Result: 4.5

Others:
Task: Look up Kd: M4-3 ML2 (E10) (antibody, human IgG1, V domains shown) VH: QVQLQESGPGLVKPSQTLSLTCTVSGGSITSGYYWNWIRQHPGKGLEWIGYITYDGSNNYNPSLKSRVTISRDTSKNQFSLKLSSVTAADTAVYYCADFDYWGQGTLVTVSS VL: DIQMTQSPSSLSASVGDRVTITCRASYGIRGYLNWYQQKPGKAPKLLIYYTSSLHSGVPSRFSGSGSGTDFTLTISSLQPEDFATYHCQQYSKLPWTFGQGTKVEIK
Result: 62.8
